- tested system: murine BACE1 ECD; further: test concentration or dose not given here
- Sequence (single chain, as listed by the source limits assumed): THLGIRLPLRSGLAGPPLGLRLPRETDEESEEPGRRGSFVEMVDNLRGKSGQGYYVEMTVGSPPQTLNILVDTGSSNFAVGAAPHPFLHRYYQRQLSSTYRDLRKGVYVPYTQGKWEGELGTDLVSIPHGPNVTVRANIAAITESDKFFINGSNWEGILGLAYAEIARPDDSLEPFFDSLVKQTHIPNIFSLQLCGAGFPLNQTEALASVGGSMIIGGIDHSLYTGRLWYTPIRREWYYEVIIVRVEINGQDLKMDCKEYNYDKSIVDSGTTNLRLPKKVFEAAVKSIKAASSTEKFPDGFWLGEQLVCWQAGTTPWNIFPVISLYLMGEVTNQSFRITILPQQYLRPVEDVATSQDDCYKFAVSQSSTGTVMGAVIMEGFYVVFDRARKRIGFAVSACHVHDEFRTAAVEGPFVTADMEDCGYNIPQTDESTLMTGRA
- method: cell-based or functional assay
recorded endpoint: % inhibition, FRET short substrate assay (negative = activation) (%)
All answers are understood in %, so give the number only.

Solved entries (count: 2):
Quick one: % inhibition, FRET short substrate assay (negative = activation) for 5891 (antibody, V domains shown) VH: QVQLVQSGAEVKKPGSSVKVSCKASGGTFSSYAISWVRQAPGQGLEWMGNIIPIFGPANYAQKFQGRVTITADESTSTAYMELSSLRSEDTAVYYCARSGGTKYGMLDVWGQGTMVTVSS VL: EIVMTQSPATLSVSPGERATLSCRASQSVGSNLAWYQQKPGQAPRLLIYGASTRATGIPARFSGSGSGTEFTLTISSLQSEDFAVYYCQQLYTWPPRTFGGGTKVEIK ? 70

Quick one: % inhibition, FRET short substrate assay (negative = activation) for 5571 (antibody, V domains shown) VH: QVQLVQSGAEVKKPGSSVKVSCKASGGTFSSYAISWVRQAPGQGLEWMGNIIPIFGTANYAQKFQGRVTITADESTSTAYMELSSLRSEDTAVYYCARSGGTKYGMLDVWGQGTVVTVSS VL: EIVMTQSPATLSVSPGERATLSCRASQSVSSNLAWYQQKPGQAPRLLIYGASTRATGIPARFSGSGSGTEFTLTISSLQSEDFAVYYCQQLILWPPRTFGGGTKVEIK ? -175

--- query ---
Quick one: % inhibition, FRET short substrate assay (negative = activation) for 5883 (antibody, V domains shown) VH: QVQLVQSGAEVKKPGSSVKVSCKASGGTFSSYAISWVRQAPGQGLEWMGGIIPIGGGANYAQKFQGRVTITADESTSTAYMELSSLRSEDTAVYYCARSGGTKYGMLDVWGQGTMVTVSS VL: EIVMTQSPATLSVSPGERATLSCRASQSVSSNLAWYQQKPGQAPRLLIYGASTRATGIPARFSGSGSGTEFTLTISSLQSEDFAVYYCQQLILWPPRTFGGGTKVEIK ? -275
